assay system: Glycogen synthase kinase-3 alpha (Homo sapiens)
stated conditions: at 1 µM
measured quantity: inhibition (%)
Enter your answer as a number in %; do not include the unit.

Fc1ccc(-c2ncn(C3CCNCC3)c2-c2ccnc(Oc3ccc(Oc4ccccc4)cc3)n2)cc1; 2.77
O=C1NC(=O)C(c2cccc(Cl)c2)=C1Nc1ccc(Cl)c(C(=O)O)c1; 77.5
COc1cccc(/C=N/Nc2ncnc3c2cnn3-c2cccc(OC)c2)c1; 58.1
COc1ccc2ncn(-c3cc(O[C@H](C)c4ccccc4Cl)c(C(N)=O)s3)c2c1; 1.7
COc1ccc2cc(-c3c(-c4ccncc4)nc(-c4ccc([S+](C)[O-])cc4C)n3C)ccc2c1 (stereo not drawn); 15.4

Request: GET /values?readout=inhibition&system=Glycogen synthase kinase-3 alpha (Homo sapiens)&item= "NC(=O)c1cc(-c2ccc(F)cc2)cc(-c2ccncc2)c1N"
Result: 1.03

Request: Lab note: need inhibition for "CS(=O)(=O)CCNCc1ccc(-c2ccc3ncnc(Nc4ccc(OCc5ccccc5)c(Br)c4)c3c2)o1" on Glycogen synthase kinase-3 alpha (Homo sapiens), anyone have it?
Result: -0.89

Request: Checklist item: inhibition tested on Glycogen synthase kinase-3 alpha (Homo sapiens), entry "Cc1ccc(C(=O)NC2CCC2)cc1-c1ccc(C(=O)NCC2CC2)cc1" , value?;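 also: each figure is a mean percent inhibition of GSK3A activity, from a screen of the GSK published kinase inhibitor set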
Result: 4.22

Request: Query the reported inhibition for Glycogen synthase kinase-3 alpha (Homo sapiens); item: "COc1cc2ncn(-c3cc(OCc4cccs4)c(C(N)=O)s3)c2cc1OC"
Result: 6.22

----------
assay system: RAF proto-oncogene serine/threonine-protein kinase (Homo sapiens) (UniProt P04049);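 also: values are the mean percent inhibition of CRAF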
Sequence (P04049 whole entry): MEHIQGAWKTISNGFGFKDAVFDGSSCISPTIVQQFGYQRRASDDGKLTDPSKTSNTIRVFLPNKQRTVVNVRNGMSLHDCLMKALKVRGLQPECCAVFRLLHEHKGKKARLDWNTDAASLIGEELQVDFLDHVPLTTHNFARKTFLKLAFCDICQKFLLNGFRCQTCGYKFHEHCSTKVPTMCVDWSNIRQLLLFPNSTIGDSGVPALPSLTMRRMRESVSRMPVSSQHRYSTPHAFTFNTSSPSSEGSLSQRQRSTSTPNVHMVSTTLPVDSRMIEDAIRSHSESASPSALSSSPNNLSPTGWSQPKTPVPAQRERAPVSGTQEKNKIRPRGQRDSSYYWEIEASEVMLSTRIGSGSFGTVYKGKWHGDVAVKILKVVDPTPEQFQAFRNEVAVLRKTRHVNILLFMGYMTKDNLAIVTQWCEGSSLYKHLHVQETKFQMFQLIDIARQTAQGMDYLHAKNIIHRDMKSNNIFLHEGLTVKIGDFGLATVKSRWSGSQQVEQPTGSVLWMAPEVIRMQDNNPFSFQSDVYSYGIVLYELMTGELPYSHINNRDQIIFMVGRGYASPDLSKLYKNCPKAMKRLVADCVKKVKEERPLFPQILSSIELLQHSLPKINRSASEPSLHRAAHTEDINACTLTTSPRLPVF
stated conditions: at 1 µM
measured quantity: inhibition (%)
Give the number; % is assumed, so skip it.

Answered cases to consult:
CCN(CC)Cc1ccc(Nc2nccc(-c3cnn4ncccc34)n2)cc1; 1.56
COc1ccc2cc(-c3c(-c4ccncc4)nc(-c4ccc(S(C)(=O)=O)cc4C)n3C)ccc2c1; 2.24
C#Cc1cccc(Nc2ncnc3ccc(OCCCCNCCS(C)(=O)=O)cc23)c1; -0.78
CS(=O)(=O)CCNCc1cc(-c2cc3c(Nc4ccc(OCc5cccc(F)c5)c(Cl)c4)ncnc3s2)cs1; -3.41
Fc1ccc(-c2ncn(C3CCNCC3)c2-c2ccnc(Oc3ccc4c(c3)OCO4)n2)cc1; -0.17
COc1cc2ncn(-c3cc(OCCc4ccccc4)c(C(N)=O)s3)c2cc1OC; -9.47
COc1cc(N2CCN(C(C)C)CC2)ccc1Nc1nc(Nc2ccc(F)cc2C(=O)NC[C@@H](O)CO)c2cc[nH]c2n1; 2.01
COc1cc(Nc2ncc3c(C)nc(-c4cccc(Oc5ccccc5)c4)n3n2)cc(OC)c1OC; -0.45

Request: What value of inhibition has been reported for the following molecule? "COc1cc2ncn(-c3cc(OCc4cccs4)c(C(N)=O)s3)c2cc1OC"
Result: 6.17

Request: Need inhibition of "COc1cc(Nc2ncc3c(C)nc(-c4cccc(C(F)(F)F)c4)n3n2)cc(OC)c1OC" , thanks.
Result: -2.3

Request: Fill blank: measured inhibition of the molecule "CS(=O)(=O)CCNCc1ccc(-c2ccc3ncnc(Nc4ccc(OCc5ccccc5)c(Br)c4)c3c2)o1" is ____.
Result: 3.63

Request: Data request, read-out inhibition, for "c1ccc(Oc2ccc(Nc3ncc(-c4ccccc4)o3)cc2)cc1"
Result: 1.5

Request: Dear colleague, I am looking for the recorded inhibition of the following molecule: "O=C(Nc1n[nH]c2nc(-c3ccc(O)cc3)c(Br)cc12)C1CC1"
Result: 3.99
